The entries below come with measured growth values attached.
- Test system: HCT-116 colon
- experiment_notes: NCI-60 one-dose screen, 48 h (100 = growth as untreated, 0 = no growth, -100 = all killed)
- run_conditions: 10 µM
This is part of a sample that, as a whole, favours compounds with a hit. Of some 83,000 tested, about 20% had one in any assay.
Numeric only. Scale: %

COc1ccc(-c2cc(-c3cc(-c4ccc(OC)cc4)nc(N)n3)nc(N)n2)cc1; 103
Cc1ccc(C(=O)NC2c3ccccc3Oc3ccccc32)cc1; 30.3
O=C(NCO)c1ccccc1; 105
O=C1OC(=O)C2C1C1(Cl)C(Cl)=C(Cl)C2(Cl)C2C(=O)OC(=O)C21 (stereo not drawn); 102
CN(C)c1ccc(C(c2ccc(O)cc2)c2ccc(N(C)C)cc2)cc1; 93.9

Please look up its growth: Cc1ncc(C#N)c(N)n1
96.7

Check O=P(O)(O)OCC(O)CO (stereo not drawn) too.
102

Quick one: CC(C)C1CCCCC1O (stereo not drawn)
109

Repeat for the following compound: CC(C(=O)O)(C1CCCCC1)C1(O)CCCCC1 (stereo not drawn)
104

Again, but for CCCC(=O)c1cc(C)ccc1OC
107

Same thing, different compound: Nc1nc(N)c(N=Nc2ccc(C(=O)O)cc2)c(N)n1
95.4

Queued: COc1ccc(C(O)c2ccccc2)cc1 (stereo not drawn)
110

Then what about the compound O/N=C/c1ccc(O)cc1O ?
114

Again, but for O=C(c1ccc(O)cc1)c1ccc(O)cc1
95

Also check COc1ccccc1N=Nc1c(O)ccc2cc(S(=O)(=O)O)ccc12
103

Do the same for COc1ccc(C2OC(N)=C(O)C2=O)cc1OC (stereo not drawn) please
99.7

Try this compound next: O=C(Nc1ccccc1C(=O)NCC1CC1)c1cccs1
93.7

Likewise for COc1cc([C@@H]2c3cc4c(cc3[C@H](O)[C@H]3COC(=O)[C@H]23)OCO4)cc(OC)c1OC ?
2.8

Now the compound N#CC(=Nc1cccc(F)c1)C1=C(O)c2ccccc2C1=O
97

Try the compound CC1(C)N=C(N)N=C(N)N1c1ccc(Cl)cc1
25.1

Queued: CC1SC(N)=NC1=O (stereo not drawn)
108

Do the same for CC(=O)Nc1ccc(NC(C)=O)c2c1C(=O)c1ccccc1C2=O please
79.3

Same for CCc1ccc(/C(C#N)=C/C=C/c2ccccc2)cc1
33.5

And for O=C1OC(c2ccc(F)cc2)CC1CN1CCOCC1 (stereo not drawn) ?
92.5

And then CN(C)CCC(=O)c1ccc(O)cc1 , what is it?
106

How about COC(=O)c1ccc(NC(=O)CCl)cc1 ?
70
